- System Under Test: T1, huNABA-avi-his (hybrid protein N-A1-B3-A2: N and A1 domains of human BGP, B3 domain of human CEA, A2 domain … (human, biotinylated at the avi tag (in vivo, co-transfected biotin ligase)))
- T1 construct: also called NABA-avi-his reagent; biotinylated NABA
- T1 chain: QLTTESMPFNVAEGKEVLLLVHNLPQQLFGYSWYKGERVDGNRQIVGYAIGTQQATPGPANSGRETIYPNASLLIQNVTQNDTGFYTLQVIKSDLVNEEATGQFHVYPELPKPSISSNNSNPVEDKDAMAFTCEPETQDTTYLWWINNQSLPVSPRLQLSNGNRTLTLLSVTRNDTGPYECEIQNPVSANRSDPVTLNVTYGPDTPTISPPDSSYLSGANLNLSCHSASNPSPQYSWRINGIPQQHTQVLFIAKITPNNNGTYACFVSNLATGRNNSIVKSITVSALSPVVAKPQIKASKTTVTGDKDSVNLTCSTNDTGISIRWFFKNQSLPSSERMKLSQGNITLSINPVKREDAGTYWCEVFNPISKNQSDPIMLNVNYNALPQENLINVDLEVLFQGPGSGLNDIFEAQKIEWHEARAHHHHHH
- Measurement Notes: Biacore on immobilized NABA-avi-his; Bivalent Affinity
Measured Property: koff (s⁻¹)
Write it as a number; the unit s⁻¹ goes unstated.

Record excerpt, results attached:
binder="humanized PR1A3 antibody with heavy chain variable region CH7A and light chain variable region 2F1 (antibody, V domains shown, Measured in the bivalent form; also called CH7Ax2F1; parental antibody CH7A) VH: QVQLVQSGSELKKPGASVKVSCKASGYTFTEFGMNWVRQAPGQGLEWMGWINTKTGEATYVEEFKGRFVFSLDTSVSTAYLQISSLKAEDTAVYYCARWDFYDYVEAMDYWGQGTTVTVSS VL: DIQMTQSPSSLSASVGDRVTITCKASAAVGTYVAWYQQKPGKAPKLLIYSASYRKRGVPSRFSGSGSGTDFTLTISSLQPEDFATYYCHQYYTYPLFTFGQGTKLEIKR" endpoint_value=0.00041
binder="1C8 x 2F1 (bivalent) (antibody, V domains shown, bivalent form of the clone; copies: 2 + 2) VH: QVQLVQSGSELKKPGASVKVSCKASGYTFTEFGMNWVRQAPGQGLEWMGWINTKTGEATYVEEFKGRFVFSLDTSVSTAYLQISSLKAEDTAVYYCARWDFYHYVEAMDYWGQGTTVTVSS VL: DIQMTQSPSSLSASVGDRVTITCKASAAVGTYVAWYQQKPGKAPKLLIYSASYRKRGVPSRFSGSGSGTDFTLTISSLQPEDFATYYCHQYYTYPLFTFGQGTKLEIK" endpoint_value=0.000636
binder="H4E9 x 3A1 (antibody, V domains shown, bivalent form) VH: QVQLVQSGSELKKPGASVKVSCKASGYTFTEFGMNWVRQAPGQGLEWMGWINTKTGEATYIEEFKGRFVFSLDTSVSTAYLQISSLKAEDTAVYYCARWDFYDYVEAMDYWGQGTTVTVSS VL: DIQMTQSPSSLSASVGDRVTITCKASANVGNNVAWYQQKPGKAPKLLIYLASNRSGGVPSRFSGSGSGTDFTLTISSLQPEDFATYYCHQYYTYPLFTFGQGTKLEIKR" endpoint_value=0.000136

Annotate the binder H3 Full (5) 19 x 2F1 (bivalent) (antibody, V domains shown, bivalent form of the clone; copies: 2 + 2) VH: QVQLVQSGSELKKPGASVKVSCKASGYTFTEFGMSWVRQAPGQGLEWMGWINTKTGEATYVEEFKGRFVFSLDTSVSTAYLQISSLKAEDTAVYYCARWDAFEYVKALDYWGQGTTVTVSS VL: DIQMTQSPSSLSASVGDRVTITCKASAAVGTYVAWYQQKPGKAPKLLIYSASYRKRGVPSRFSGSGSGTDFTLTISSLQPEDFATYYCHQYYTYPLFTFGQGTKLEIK with its measured koff.
0.000284

From: patent US20230365711A1
